All values here come from the supplement of paper PMC12282887.

# System: E. coli BW25113 marRABp lux reporter
# EXPERIMENT NOTES: promoter activity interaction Z-score (Lux/OD deviation from empty-vector control); higher = stronger promoter induction by the compound
# TEST CONTEXT: 1 µg/ml; genetic background: ΔmarA
So basically: promoter activity interaction Z-score at -0.2 or higher? That is Condition met. Lower than -0.2? That is Condition not met.

COMPOUND	CLASSIFICATION
CC1(C)S[C@@H]2[C@H](NC(=O)[C@H](N)c3ccc(O)cc3)C(=O)N2[C@H]1C(=O)O	Condition not met
CCC[C@@H]1C[C@@H](C(=O)N[C@@H]([C@H]2O[C@H](SC)[C@H](O)[C@@H](O)[C@H]2O)[C@H](C)Cl)N(C)C1	Condition not met
NC1CONC1=O (stereo not given)	Condition met
CO[C@H]1/C=C/O[C@@]2(C)Oc3c(C)c(O)c4c(O)c(c(/C=N/N5CCN(C)CC5)c(O)c4c3C2=O)NC(=O)/C(C)=C\C=C\[C@H](C)[C@H](O)[C@@H](C)[C@@H](O)[C@@H](C)[C@H](OC(C)=O)[C@@H]1C	Condition not met
C/C(=C\C(=O)OCCCCCCCCC(=O)O)C[C@@H]1OC[C@H](C[C@@H]2O[C@H]2[C@@H](C)[C@H](C)O)[C@@H](O)[C@H]1O	Condition met

---

# System: E. coli BW25113 micFp lux reporter
# EXPERIMENT NOTES: promoter activity interaction Z-score (Lux/OD deviation from empty-vector control); higher = stronger promoter induction by the compound
# TEST CONTEXT: 0.011 µg/ml; genetic background: wild type
In this section we review reported promoter activity interaction Z-score values for a set of compounds.
MEASUREMENT NAME: promoter activity interaction Z-score

GIVEN SMILES	MEASUREMENT NAME	MEASURED NUMBER
COc1c(N2C[C@@H]3CCCN[C@@H]3C2)c(F)cc2c(=O)c(C(=O)O)cn(C3CC3)c12	promoter activity interaction Z-score	-0.2
C[C@@H]1O[C@@H]1P(=O)(O)O	promoter activity interaction Z-score	-0.227
C[C@@H](O)[C@H]1C(=O)N2C(C(=O)O)=C(S[C@@H]3CN[C@H](C(=O)N(C)C)C3)[C@H](C)[C@H]12	promoter activity interaction Z-score	-0.112
C[C@H]1[C@H](NC(=O)/C(=N\OC(C)(C)C(=O)O)c2csc(N)n2)C(=O)N1S(=O)(=O)O	promoter activity interaction Z-score	0.0711

---

# System: E. coli BW25113 ompFp lux reporter
# EXPERIMENT NOTES: promoter activity interaction Z-score (Lux/OD deviation from empty-vector control); higher = stronger promoter induction by the compound
# TEST CONTEXT: 1 µg/ml; genetic background: ΔmarA
In this section we review reported promoter activity interaction Z-score values for a set of compounds.

COMPOUND	promoter activity interaction Z-score
CCC[C@@H]1C[C@@H](C(=O)N[C@@H]([C@H]2O[C@H](SC)[C@H](O)[C@@H](O)[C@H]2O)[C@H](C)Cl)N(C)C1	0.255
NC1CONC1=O (centres undefined)	0.134
C/C(=C\C(=O)OCCCCCCCCC(=O)O)C[C@@H]1OC[C@H](C[C@@H]2O[C@H]2[C@@H](C)[C@H](C)O)[C@@H](O)[C@H]1O	0.569
CO[C@H]1/C=C/O[C@@]2(C)Oc3c(C)c(O)c4c(O)c(c(/C=N/N5CCN(C)CC5)c(O)c4c3C2=O)NC(=O)/C(C)=C\C=C\[C@H](C)[C@H](O)[C@@H](C)[C@@H](O)[C@@H](C)[C@H](OC(C)=O)[C@@H]1C	-1.53

---

In this section we review reported promoter activity interaction Z-score values for a set of compounds.
# Test system: E. coli BW25113 micFp lux reporter
# EXPERIMENT NOTES: promoter activity interaction Z-score (Lux/OD deviation from empty-vector control); higher = stronger promoter induction by the compound
# TEST CONTEXT: 0.011 µg/ml; genetic background: ΔsoxS

GIVEN SMILES	TARGET OR TEST SYSTEM	promoter activity interaction Z-score
C[C@H]1[C@H](NC(=O)/C(=N\OC(C)(C)C(=O)O)c2csc(N)n2)C(=O)N1S(=O)(=O)O	E. coli BW25113 micFp lux reporter	0.375
COc1c(N2C[C@@H]3CCCN[C@@H]3C2)c(F)cc2c(=O)c(C(=O)O)cn(C3CC3)c12	E. coli BW25113 micFp lux reporter	-0.0364
C[C@@H]1O[C@@H]1P(=O)(O)O	E. coli BW25113 micFp lux reporter	-0.3
C[C@@H](O)[C@H]1C(=O)N2C(C(=O)O)=C(S[C@@H]3CN[C@H](C(=O)N(C)C)C3)[C@H](C)[C@H]12	E. coli BW25113 micFp lux reporter	-0.229

---

# System: E. coli BW25113 ompFp lux reporter
# EXPERIMENT NOTES: promoter activity interaction Z-score (Lux/OD deviation from empty-vector control); higher = stronger promoter induction by the compound
# TEST CONTEXT: 0.13 µg/ml; genetic background: ΔsoxS
So basically: promoter activity interaction Z-score at 0.7 or higher? That is True. Lower than 0.7? That is False.

COMPOUND	CLASSIFICATION
CNC(C)C1CCC(N)C(OC2C(N)CC(N)C(OC3OCC(C)(O)C(NC)C3O)C2O)O1 (stereo not given) [Gentamicin]	False
CO[C@@]12[C@H](COC(N)=O)C3=C(C(=O)C(C)=C(N)C3=O)N1C[C@@H]1N[C@@H]12 [Mitomycin C]	True
C[C@H]1c2cccc(O)c2C(=O)C2=C(O)[C@]3(O)C(=O)C(C(N)=O)=C(O)[C@@H](N(C)C)[C@@H]3[C@@H](O)[C@@H]21 [Doxycycline]	True
CCN1CCN(C(=O)N[C@@H](C(=O)N[C@@H]2C(=O)N3[C@@H]2SC(C)(C)[C@@H]3C(=O)O)c2ccccc2)C(=O)C1=O [Piperacillin]	False

---

# System: E. coli BW25113 soxSp lux reporter
# EXPERIMENT NOTES: promoter activity interaction Z-score (Lux/OD deviation from empty-vector control); higher = stronger promoter induction by the compound
# TEST CONTEXT: 0.25 µg/ml; genetic background: ΔsoxS
MEASUREMENT NAME: promoter activity interaction Z-score

GIVEN SMILES	MEASUREMENT NAME	RESULT
CC1(C)S[C@@H]2[C@H](NC(=O)[C@H](N)c3ccc(O)cc3)C(=O)N2[C@H]1C(=O)O	promoter activity interaction Z-score	-0.199
N=C(NCCCCCCNC(=N)NC(=N)Nc1ccc(Cl)cc1)NC(=N)Nc1ccc(Cl)cc1	promoter activity interaction Z-score	0.165
C/C(=C\C(=O)OCCCCCCCCC(=O)O)C[C@@H]1OC[C@H](C[C@@H]2O[C@H]2[C@@H](C)[C@H](C)O)[C@@H](O)[C@H]1O	promoter activity interaction Z-score	-0.226
CN(C)c1ccc(O)c2c1C[C@H]1C[C@H]3[C@H](N(C)C)C(O)=C(C(N)=O)C(=O)[C@@]3(O)C(O)=C1C2=O	promoter activity interaction Z-score	-0.114

---

# Tested on: E. coli BW25113 acrABp lux reporter
# EXPERIMENT NOTES: promoter activity interaction Z-score (Lux/OD deviation from empty-vector control); higher = stronger promoter induction by the compound
# TEST CONTEXT: 3.7 µg/ml; genetic background: ΔmarA

GIVEN SMILES	promoter activity interaction Z-score
CC[C@H]1OC(=O)[C@H](C)[C@@H](O[C@H]2C[C@@](C)(OC)[C@@H](O)[C@H](C)O2)[C@H](C)[C@@H](O[C@@H]2O[C@H](C)C[C@H](N(C)C)[C@H]2O)[C@](C)(OC)C[C@@H](C)C(=O)[C@H](C)[C@@H](O)[C@]1(C)O	-0.666
CCCCCCCCCCCCC[N+](C)(C)Cc1ccccc1	-0.795
CC1(C)S[C@@H]2[C@H](NC(=O)Cc3ccccc3)C(=O)N2[C@H]1C(=O)O	0.328
CC[C@H]1OC(=O)[C@H](C)[C@@H](O[C@H]2C[C@@](C)(OC)[C@@H](O)[C@H](C)O2)[C@H](C)[C@@H](O[C@@H]2O[C@H](C)C[C@H](N(C)C)[C@H]2O)[C@](C)(O)C[C@@H](C)C(=O)[C@H](C)[C@@H](O)[C@]1(C)O	-1.09

---

# Tested on: E. coli BW25113 robp lux reporter
# EXPERIMENT NOTES: promoter activity interaction Z-score (Lux/OD deviation from empty-vector control); higher = stronger promoter induction by the compound
# TEST CONTEXT: 0.13 µg/ml; genetic background: ΔsoxS

GIVEN SMILES	TARGET OR TEST SYSTEM	promoter activity interaction Z-score
CO[C@@]12[C@H](COC(N)=O)C3=C(C(=O)C(C)=C(N)C3=O)N1C[C@@H]1N[C@@H]12	E. coli BW25113 robp lux reporter	0.758
N=C(NCCCCCCNC(=N)NC(=N)Nc1ccc(Cl)cc1)NC(=N)Nc1ccc(Cl)cc1	E. coli BW25113 robp lux reporter	0.814
CCN1CCN(C(=O)N[C@@H](C(=O)N[C@@H]2C(=O)N3[C@@H]2SC(C)(C)[C@@H]3C(=O)O)c2ccccc2)C(=O)C1=O	E. coli BW25113 robp lux reporter	0.00285
C[C@H]1c2cccc(O)c2C(=O)C2=C(O)[C@]3(O)C(=O)C(C(N)=O)=C(O)[C@@H](N(C)C)[C@@H]3[C@@H](O)[C@@H]21	E. coli BW25113 robp lux reporter	0.43
